# credit: PubChem BioAssay (NCI)

System: SNB-19 CNS
Assay: NCI-60 one-dose screen, 48 h
Conditions: 10 µM unless noted
The panel holds about 83,000 compounds, 20% with a hit somewhere; the sample as a whole holds those more often. Active and inactive are the calls of the source. The calls were made as follows: active = growth percent below 10; inactive = the rest.
Answer with one of the outcomes given here: true (active), false (inactive)

[
  {
    "Compound": "CN1CCN(Cc2ccc(NC(=O)c3cncc(C#Cc4cnc5ccc(N6CCN(C)CC6)nn45)c3)cc2C(F)(F)F)CC1",
    "Group": "true"
  },
  {
    "Compound": "CCc1cccc2c3c(sc12)C(c1ccc(Cl)cc1)C(C#N)=C(/N=C/c1ccc(Cl)cc1)O3 (stereo not given)",
    "Group": "false"
  }
]

// return assay outcome for O=C(NNc1nc2cc(F)cc(F)c2n2cccc12)c1cnccn1 false

Look up the recorded call for COc1ccc([C@@H]2c3[nH]c4ccccc4c3C[C@H]3C(=O)N(C4CCN(CC5CCCCC5)CC4)CC(=O)N23)c(OC)c1 in this test. false

For this compound, state the assay outcome: COc1ccc(/C=C(\C#N)C(=O)N2c3ccccc3Sc3ccc(SC)cc32)cc1F false
